# System: spontaneous hypertensive rats (SHR)
# Assay protocol: Hypotensive effect in spontaneous hypertensive rats after oral administration
# Format: in vivo
# Study conditions: Rattus norvegicus, 1 mg/kg p.o., percent drop relative to blood pressure before medication
Where a name gives a salt, the structure may show the parent alone.
In this section we review reported inhibition in vivo at 1 mg/kg values for a set of compounds.
Quick reminder: number only, in %, skip the unit.

Worked set:
Compound: O=C(CCNCC1COc2ccccc2O1)c1ccc2c(c1)OCO2 (stereo not drawn) [Compound 27, reference compound]
inhibition in vivo at 1 mg/kg (%): 7.8
--
Compound: Cl.OC(CNCC1COc2ccccc2O1)COc1ccc2c(c1)OCO2 (stereo not drawn) [Compound 1, hydrochloride]
inhibition in vivo at 1 mg/kg (%): 9.9
--
Compound: c1ccc2c(c1)OCC(CNCCCCc1ccc3c(c1)OCCO3)O2 (stereo not drawn)
inhibition in vivo at 1 mg/kg (%): 12.1
--
Compound: c1ccc2c(c1)OCC(CNCCCCc1ccc3c(c1)OCCCO3)O2 (stereo not drawn) [Compound 17, hydrochloride]
inhibition in vivo at 1 mg/kg (%): 20.1

input: Quick check: inhibition in vivo at 1 mg/kg of Cl.O=C(CNCC1COc2ccccc2O1)c1ccc2c(c1)OCO2 (stereo not drawn) [Compound 12, hydrochloride] ?
output: 20.1

input: Next: c1ccc2c(c1)OCC(CNCCCNc1ccc3c(c1)OCO3)O2 (stereo not drawn)
output: 19.6

input: One more compound: O=C(CCNCC1COc2ccccc2O1)Nc1ccc2c(c1)OCO2 (stereo not drawn)
output: 11.9

input: What do you get for OC(CNCC1COc2ccccc2O1)COc1ccc2c(c1)OCCO2 (stereo not drawn) ?
output: 9

input: Another: OC(CNCC1COc2ccccc2O1)c1ccc2c(c1)OCCO2 (stereo not drawn)
output: 9.8
